testMethodNotes: Apparent permeability of the compound was determined in MDCK (madin darby canine kidney) strain I; Activity = Papp 10e-6
Type: ADME, Canis lupus familiaris
experimentalSetup: dog
Papp reference
metric: Papp

{"compound": "O=C(N[C@H](CO)[C@H](O)c1ccc([N+](=O)[O-])cc1)C(Cl)Cl", "measured": "3.15 ×10⁻⁶ cm/s"}
{"compound": "CC(C)NCC(O)COc1cccc2ccccc12 (centres undefined)", "measured": "34.4 ×10⁻⁶ cm/s"}
{"compound": "COCCc1ccc(OCC(O)CNC(C)C)cc1 (centres undefined)", "measured": "37.8 ×10⁻⁶ cm/s"}
{"compound": "CN/C(=C\\[N+](=O)[O-])NCCSCc1ccc(CN(C)C)o1", "measured": "0.27 ×10⁻⁶ cm/s"}
